# system under test: fructose diphosphatase ("FDPase") (Oryctolagus cuniculus, UniProt P00637)
# Construct: fructose -1,6- diphosphatase from rabbit liver (Sigma)
# Sequence (P00637 2-338 limits assumed): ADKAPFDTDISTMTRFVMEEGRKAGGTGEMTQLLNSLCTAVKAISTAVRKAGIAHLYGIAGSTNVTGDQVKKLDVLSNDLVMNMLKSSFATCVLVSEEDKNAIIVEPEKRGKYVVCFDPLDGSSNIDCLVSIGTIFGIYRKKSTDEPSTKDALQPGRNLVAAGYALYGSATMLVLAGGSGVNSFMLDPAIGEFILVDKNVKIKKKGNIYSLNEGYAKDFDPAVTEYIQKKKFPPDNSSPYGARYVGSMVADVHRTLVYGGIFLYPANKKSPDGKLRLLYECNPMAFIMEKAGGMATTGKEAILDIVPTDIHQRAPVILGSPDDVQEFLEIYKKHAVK
# assay remarks: Inhibition of fructose-1,6-diphosphatase from rabbit liver
quantity kind: Ki

Per the record, NC(=O)c1ncn([C@@H]2O[C@H](COP(=O)(O)O)[C@@H](O)[C@H]2O)c1N [ZMP, AICA riboside-5'-monophosphate] has Ki of ~40 µM

* * *

# assay remarks: in vivo
# Parameters: species or system dogs
# settings: dog, po
quantity kind: AUC(0-t)
The answer consists of two parts: a number and, after it, its unit.

Record NC(=O)c1ncn([C@@H]2O[C@H](CO)[C@@H](O)[C@H]2O)c1N [AICA riboside] . Reported AUC(0-t): 900 ng·h/mL

* * *

# system under test: FDPase (Homo sapiens)
# Sequence (P09467 2-338 limits assumed): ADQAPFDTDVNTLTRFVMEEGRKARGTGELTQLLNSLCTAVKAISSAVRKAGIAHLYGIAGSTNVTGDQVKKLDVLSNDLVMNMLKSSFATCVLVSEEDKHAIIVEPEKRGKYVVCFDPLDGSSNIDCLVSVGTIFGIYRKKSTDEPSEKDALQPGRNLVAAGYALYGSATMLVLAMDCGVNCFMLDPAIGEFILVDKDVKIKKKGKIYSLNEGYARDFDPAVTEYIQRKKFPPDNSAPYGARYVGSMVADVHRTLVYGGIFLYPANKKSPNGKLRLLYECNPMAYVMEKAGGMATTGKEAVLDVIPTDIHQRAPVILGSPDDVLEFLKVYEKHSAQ
quantity kind: pIC50
Please report pIC50 as the negative decimal logarithm of the molar concentration, giving only the number.

Sure, the documented pIC50 for NC(=O)c1ncn([C@@H]2O[C@H](COP(=O)(O)O)[C@@H](O)[C@H]2O)c1N [ZMP, AICA riboside-5'-monophosphate] is 4.32

* * *

# system under test: FDPase
# assay remarks: Inhibition of liver FDPase by ZMP (IC50)
# Format: biochemical
# settings: Guinea Pig liver homogenate supernatant
quantity kind: IC50 (µM)
Please give a number only; it is taken to be in µM.

Observed IC50, FDPase, NC(=O)c1ncn([C@@H]2O[C@H](COP(=O)(O)O)[C@@H](O)[C@H]2O)c1N [ZMP, AICA riboside-5'-monophosphate] : 12

* * *

# system under test: FDPase (Oryctolagus cuniculus)
# Sequence (P00637 2-338 limits assumed): as the sequence (P00637 2-338 limits assumed) above
quantity kind: IC50 (µM)
Please state the figure in µM; there is no need to write the unit.

IC50 value, target or system FDPase (Oryctolagus cuniculus), for NC(=O)c1ncn([C@@H]2O[C@H](COP(=O)(O)O)[C@@H](O)[C@H]2O)c1N [ZMP, AICA riboside-5'-monophosphate] : 41

* * *

# assay remarks: in vivo
# Set-up: species or system dogs
# settings: dog, po
quantity kind: Cmax

Record CC(=O)OC[C@H]1O[C@@H](n2cnc(C(N)=O)c2N)[C@H](OC(C)=O)[C@@H]1OC(C)=O [Compound C1, 2',3',5'-triacetyl AICA riboside] , field Cmax: 2200 ng/mL

Further cases:
The compound listed as NC(=O)c1ncn([C@@H]2O[C@H](CO)[C@@H](O)[C@H]2O)c1N [AICA riboside] has a reported Cmax of 1100 ng/mL

Sure, the documented Cmax for CC(C)(C)C(=O)OC[C@H]1O[C@@H](n2cnc(C(N)=O)c2N)[C@H](O)[C@@H]1O [Compound 11, 5'-pivalyl-AICA riboside] is 3200 ng/mL

So, CC(C)C(=O)OC[C@H]1O[C@@H](n2cnc(C(N)=O)c2N)[C@H](O)[C@@H]1O [Compound 10, 5'-isobutyryl-AICA riboside] ? Its Cmax was 5000 ng/mL

* * *

# system under test: FDPase
# assay remarks: Inhibition of liver FDPase by ZMP (IC50)
# Format: biochemical
# settings: Gerbil liver homogenate supernatant
quantity kind: pIC50
pIC50 is defined as minus the log10 of a concentration measured in mol/L.

Memo: NC(=O)c1ncn([C@@H]2O[C@H](COP(=O)(O)O)[C@@H](O)[C@H]2O)c1N [ZMP, AICA riboside-5'-monophosphate] , reported pIC50: 4.30

* * *

# assay remarks: in vivo
# Set-up: species or system dogs
# settings: dog, po
This section presents molecules with their documented Tmax values.
Please respond with the number in min and leave the unit unwritten.

Example cases with answers are listed next.
Notebook: NC(=O)c1ncn([C@@H]2O[C@H](CO)[C@@H](O)[C@H]2O)c1N [AICA riboside] , Tmax read as 45

Recorded Tmax (molecule CC(=O)OC[C@H]1O[C@@H](n2cnc(C(N)=O)c2N)[C@H](OC(C)=O)[C@@H]1OC(C)=O [Compound C1, 2',3',5'-triacetyl AICA riboside] ): 90

The reported value for CC(C)C(=O)OC[C@H]1O[C@@H](n2cnc(C(N)=O)c2N)[C@H](O)[C@@H]1O [Compound 10, 5'-isobutyryl-AICA riboside] in terms of Tmax is 45

---
Tmax for CC(C)(C)C(=O)OC[C@H]1O[C@@H](n2cnc(C(N)=O)c2N)[C@H](O)[C@@H]1O [Compound 11, 5'-pivalyl-AICA riboside] is 60

Reference for the values: patent EP0427799B1
